assay: chemical genetic growth profiling, strain panel (AID 1159580);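 note: tested at 20 µM; growth read once vehicle control cultures reached saturation at 30 °C; 1 = growth at the plate median or of vehicle wells; lower values mean less growth of the strain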; conditions: S. cerevisiae deletion strains, growth OD, locus YNL250W, strain rad50, stronger effect = lower value
The campaign covered roughly 5,500 compounds. About 2,000 (36%) were called active. Inconclusive results (about 18%) are left out. The list shows a part of the results.

molecule	normalized growth
Cc1ccc(C(C)C)cc2c(C)ccc1-2	1.05 (inactive)
O=C1O[C@@H](CO)[C@H](O)[C@@H](O)[C@@H]1O	1.05 (inactive)
CCCCC(CC)CN=C(N)NC(N)=NCCCCCCN=C(N)NC(N)=NCC(CC)CCCC (stereo unspecified)	0.0631 (active)
CN(Cc1cc(Br)cc(Br)c1N)C1CCCCC1	1.05 (inactive)
CC1(C)C2CC(=O)O[C@@]3(C)C4=CC(=O)O[C@@H](c5ccoc5)[C@]4(C)CCC3[C@@]2(C)C=C[C@H]1O (stereo partly specified)	0.984 (inactive)
CC1=CC(=O)CC(C)(C)C1(O)/C=C/C(C)=C\C(=O)O (stereo unspecified)	0.964 (inactive)
Nc1c(Br)cc(Br)cc1CNC1CCC(O)CC1 (stereo unspecified)	0.994 (inactive)
C[C@H](COc1ccccc1)N[C@H](C)[C@H](O)c1ccc(O)cc1	0.977 (inactive)
CC[C@@H]1[C@@H](O)N2C3C[C@H]1C1C(O)[C@]4(C[C@@H]12)c1ccccc1N(C)[C@@H]34 (stereo partly specified)	0.981 (inactive)
CCN(CC)CCOC(=O)C(Cc1cccc2ccccc12)CC1CCCO1 (stereo unspecified)	1.01 (inactive)
CCCSP(=O)(OCC)SCCC	0.984 (inactive)

* * *

experiment: chemical genetic growth profiling, strain panel (AID 1159580);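 note: tested at 20 µM; growth read once vehicle control cultures reached saturation at 30 °C; 1 = growth at the plate median or of vehicle wells; lower values mean less growth of the strain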; details: S. cerevisiae deletion strains, growth OD, locus YPL055C, strain LGE1, stronger effect = lower value
Among all 5,500 compounds or so, about 2,000 (36%) were called active. Roughly 18% stayed inconclusive and do not appear here. Some of the results follow.
metric_name: normalized growth

molecule	metric_name	result_value
Fc1cccc(Cl)c1Cn1nnc(N2CCCCC2)n1	normalized growth	0.959
COc1cc(N=Cc2ccc3c(c2)OCO3)c(OC)cc1Cl	normalized growth	0.998
COC(=O)c1ccc(S(=O)(=O)NCc2ccccc2)n1C	normalized growth	0.991
CC(=O)c1ccc(-c2ccc(C(C)=O)cc2)cc1	normalized growth	0.941
Oc1ccc(/C=C/c2cc(O)cc(O)c2)cc1	normalized growth	0.894
O=C(CCCCCCCCC(=O)c1ccccc1)c1ccccc1	normalized growth	0.981
Nc1nc2c(c(=O)[nH]1)N(C=O)C(CNc1ccc(C(=O)N[C@@H](CCC(=O)O)C(=O)O)cc1)CN2 (stereo partly drawn)	normalized growth	0.981
O=C(OCCN1CCOCC1)C1(c2ccccc2)CCCCC1	normalized growth	1.02
c1cc2c(cc1[C@H]1OC[C@H]3[C@@H]1CO[C@H]3c1ccc3c(c1)OCO3)OCO2	normalized growth	0.923
COc1ccc2c(c1O)-c1cccc3c1[C@@H](C2)N(C)CC3	normalized growth	0.989
COc1nc(N)nc(SC)n1	normalized growth	1.01
COC(=O)c1ccc(-c2ccccc2F)cc1	normalized growth	0.917
OC/C=C/c1ccc(O)c(O)c1	normalized growth	1
CCC(=O)c1ccc(-c2ccccc2)cc1	normalized growth	0.831
Cc1cc(/C=N/NC(N)=S)c2c(C)ccc(C(C)C)cc1-2	normalized growth	1.04
O=C(/C=C/c1ccc(O)c(O)c1)O[C@@H]1C[C@](O)(C(=O)O)C[C@@H](O)[C@H]1O	normalized growth	1.03
S=c1[nH]c2ccccc2[nH]1	normalized growth	0.961
CCCCC(CC)CN=C(N)NC(N)=NCCCCCCN=C(N)NC(N)=NCC(CC)CCCC (stereo not drawn)	normalized growth	0.0672
CC(N)=NCCCC[C@@H](N)C(=O)O	normalized growth	1
S=c1[nH]c2ccccc2s1	normalized growth	0.987
CC(C)COC(=O)OCN1C(=O)CN(CCN2CC(=O)N(COC(=O)OCC(C)C)C(=O)C2)CC1=O	normalized growth	1.03
CC/C(=N/Oc1ccc(C(F)(F)F)cn1)c1ccc(-c2ccccc2F)cc1	normalized growth	0.984
O=C(O)c1cc(C(F)(F)F)ccc1F	normalized growth	1.01
COC(=O)c1ccc(C(=O)OC)nc1	normalized growth	0.991
CCOC(=O)c1c(N=Cc2cc(Br)c(Br)cc2O)sc2c1CCCC2	normalized growth	0.113
COc1cccc(-c2cc(=O)c3ccccc3o2)c1N	normalized growth	1.01
CCCn1c(=O)c2[nH]c(-c3ccc(OCC(=O)NCCN)cc3)nc2n(CCC)c1=O	normalized growth	0.973
CN1c2ccccc2C(=O)NC1c1cc(Br)cs1 (stereo not drawn)	normalized growth	1.01
CCOP(=S)(OCC)SCCSCC	normalized growth	0.949
O=C(O)CNCP(=O)(O)O	normalized growth	0.987
ON(Cc1c(F)cccc1Cl)Cc1c(F)cccc1Cl	normalized growth	1.02
CCC(CO)NC(=O)C1C=C2c3cccc4c3c(cn4C)CC2N(C)C1 (stereo not drawn)	normalized growth	0.997
Cc1ccc(O)c(N=Nc2ccccc2)n1	normalized growth	0.425
CN(C)c1ccc(/C=N\NC(=O)CCc2ccc(O)cc2)c(Cl)c1	normalized growth	0.985
Cc1cccc2nc(-c3ccccc3)oc(=O)c12	normalized growth	0.781
NC(=O)CCC(N)C(=O)O (stereo not drawn)	normalized growth	1.03
CCOC(=O)CCc1cc(N=Cc2cc(Cl)cc(Cl)c2O)c(O)c(N=Cc2cc(Cl)cc(Cl)c2O)c1	normalized growth	0.212
COc1cc2c3cc1Oc1cc(ccc1O)OC1c4c(cc(OC)c(O)c4Oc4ccc(cc4)CC3N(C)CC2)CCN1C (stereo not drawn)	normalized growth	1
COc1ccc(CN(Cc2ccc(OC)cc2)C(=O)c2cccs2)cc1	normalized growth	0.945
CC1=C(C(=O)O)N2C(=O)[C@@H](NC(=O)C(N)C3=CCC=CC3)[C@H]2SC1 (stereo partly drawn)	normalized growth	1.02
CCOC(=O)CC(=O)Nc1scc(C)c1C(=O)OCC	normalized growth	0.968
CC(=O)OCC(=O)[C@@]12OC(C)(C)O[C@@H]1CC1C3C[C@H](F)C4=CC(=O)C=C[C@]4(C)[C@@]3(F)[C@@H](O)C[C@@]12C (stereo partly drawn)	normalized growth	1.01
COC(=O)c1cc(OC)c(OC)cc1NS(=O)(=O)c1ccc(C)cc1	normalized growth	0.894
O=C(O)CCC(=O)c1ccc(-c2ccccc2)cc1	normalized growth	0.973
COP(=S)(OC)Oc1ccc(SC)c(C)c1	normalized growth	1.01
COc1ccc(/C=C/C(=O)Nc2ccccc2C(=O)O)cc1OC	normalized growth	1.05
CCN1C(=O)C=CC1=O	normalized growth	1.09
CC(N)(Cc1ccc(O)c(O)c1)C(=O)O (stereo not drawn)	normalized growth	0.943
